Quick list: koff per entry.
target: T1, hGCGR-hFc (human); assay: SPR Biacore T100, 37C, mAb captured, antigen flowed
T1 construct: also called REGN316
T1 sequence (chain, as listed by the source limits assumed): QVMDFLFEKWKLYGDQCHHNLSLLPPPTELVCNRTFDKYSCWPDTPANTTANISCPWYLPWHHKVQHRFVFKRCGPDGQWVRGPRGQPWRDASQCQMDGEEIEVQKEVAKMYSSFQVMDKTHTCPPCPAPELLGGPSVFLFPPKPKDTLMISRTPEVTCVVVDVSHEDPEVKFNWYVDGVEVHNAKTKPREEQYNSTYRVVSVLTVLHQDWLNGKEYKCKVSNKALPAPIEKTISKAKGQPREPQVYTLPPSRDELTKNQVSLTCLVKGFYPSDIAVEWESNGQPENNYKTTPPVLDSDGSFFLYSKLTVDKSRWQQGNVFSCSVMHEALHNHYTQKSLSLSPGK

| BINDER | MEASUREMENT_UNITS | koff |
| --- | --- | --- |
| H4H1339P (antibody, V domains shown, Fully human anti-GCGR antibody; the controls are called isotype-matched hIgG4) VH: EVQLVESGGGMVQPGGSLRLSCAASGFTSSNYDMHWVRQATGKGLEWVSSIDTAGDTYYPDSVKGRFIISRENAKNSLYLQMNSLRAGDTAVYYCTREPRNYEILTGHYHYHGMDIWGQGTTVTVS VL: AIQMTQSPSSLSASVGDRVTITCRASQAIRNDLGWYQQKPGKAPKLLIYTAFSLQSGVPSRFSGSKSGTDFTLTISSLQPEDFATYYCLQDYTNPRTFGQGTKVEIK | s⁻¹ | 0.000371 |
| H4H1765N (antibody, V domains shown, Anti-GCGR antibody from hybridoma; the controls are called isotype-matched hIgG4) VH: EEQLVESGGDLVQPGGSLRLSCAASGFTLSSYEMNWVRQAPGKGLEWVSYISRGGSLIHYTDSVKGRFTISRDNAKNSLYLQMNSLRAEDTAVYYCVRDPAARYHYYYHGMDVWGQGTTVTVSS VL: DIVMTQSPLSLPVTPGEPASISCRSSQSLLHNNGYNYLDWYLQKPGQSPQLLIYLGSSRASGVPDRFSGSGSGTDFILKISRVEAEDVGVYYCMQALQTPWTFGRGTKVEIK | s⁻¹ | 3.57e-05 |
| H4H1328P (antibody, V domains shown, Fully human anti-GCGR antibody; the controls are called isotype-matched hIgG4) VH: EVQLVESGGALVQPGGSLRLSCTASGFTFSNYDMHWVRQTTGKGLEWISAIDTAGDTYYPGSVKGRFTVSRENAKNSFYLQMNSLRAGDTAVYYCAREGKYYDILTGDYHYYGMDVWGQGTTVTVS VL: DIQMTQSPSSLSASVGDRVTITCRASQGIRNDLGWYQQKPGKAPKRLIYATSSLQSGVPSRFSGSGSGTEFTLTISSLQPEDFATYYCLQHNSYPLTFGGGTKLEIK | s⁻¹ | 0.000192 |
